Test: BHET released, HPLC; higher = more BHET released; extreme values may be limits of the assay
Details: PET substrate: aFilm; 70 °C; pH 8.5; 24 h
Exercise: state measured BHET released for each of the sequences provided.
One number for each entry, in mM.

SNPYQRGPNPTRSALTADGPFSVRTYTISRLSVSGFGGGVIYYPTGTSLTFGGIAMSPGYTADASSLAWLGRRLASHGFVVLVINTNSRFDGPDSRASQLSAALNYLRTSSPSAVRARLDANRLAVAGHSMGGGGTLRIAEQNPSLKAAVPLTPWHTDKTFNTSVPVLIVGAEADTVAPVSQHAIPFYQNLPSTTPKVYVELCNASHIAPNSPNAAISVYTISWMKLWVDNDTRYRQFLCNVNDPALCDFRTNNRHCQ [LCC-ICCG RIP]: 0
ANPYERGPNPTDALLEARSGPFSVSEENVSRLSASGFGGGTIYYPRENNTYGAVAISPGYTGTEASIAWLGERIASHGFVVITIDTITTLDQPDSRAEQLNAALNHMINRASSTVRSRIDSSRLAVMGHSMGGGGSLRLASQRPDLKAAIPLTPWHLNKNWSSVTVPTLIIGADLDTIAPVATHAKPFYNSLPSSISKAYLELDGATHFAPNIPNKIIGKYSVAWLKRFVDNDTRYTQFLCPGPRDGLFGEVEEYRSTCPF [TfCut2]: 0

Here's the next entry for you.
Reported BHET released, sequence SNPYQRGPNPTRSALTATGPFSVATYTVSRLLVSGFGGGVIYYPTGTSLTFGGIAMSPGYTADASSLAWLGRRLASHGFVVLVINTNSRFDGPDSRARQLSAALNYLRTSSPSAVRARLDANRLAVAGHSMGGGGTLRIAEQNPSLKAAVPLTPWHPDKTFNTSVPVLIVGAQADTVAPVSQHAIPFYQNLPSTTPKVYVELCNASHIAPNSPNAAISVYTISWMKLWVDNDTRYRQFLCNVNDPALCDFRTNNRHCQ [LCC-ICCG I6M] : ____
0

###

Exercise: state measured MHET released for each of the sequences provided.
Experiment: MHET released, HPLC; higher = more MHET released; extreme values may be limits of the assay
Conditions: PET substrate: cryPow; 70 °C; pH 5.5; 24 h
Give bare numbers, in mM.

Go through the list and state MHET released for each entry.
1. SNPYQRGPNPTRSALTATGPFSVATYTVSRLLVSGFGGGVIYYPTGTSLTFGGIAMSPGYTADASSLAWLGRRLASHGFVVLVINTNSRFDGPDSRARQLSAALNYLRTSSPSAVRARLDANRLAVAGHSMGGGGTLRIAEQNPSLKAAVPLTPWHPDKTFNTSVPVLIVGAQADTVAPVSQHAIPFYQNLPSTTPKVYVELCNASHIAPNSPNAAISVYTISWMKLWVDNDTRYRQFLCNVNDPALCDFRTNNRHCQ [LCC-ICCG I6M]
2. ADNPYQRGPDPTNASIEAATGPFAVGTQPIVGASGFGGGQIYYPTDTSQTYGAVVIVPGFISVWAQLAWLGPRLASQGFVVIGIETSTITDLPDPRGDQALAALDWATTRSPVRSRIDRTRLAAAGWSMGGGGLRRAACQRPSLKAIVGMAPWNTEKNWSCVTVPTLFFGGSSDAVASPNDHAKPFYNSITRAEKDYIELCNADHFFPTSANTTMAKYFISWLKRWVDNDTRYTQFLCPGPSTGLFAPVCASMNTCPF [CaPETaseM9]
3. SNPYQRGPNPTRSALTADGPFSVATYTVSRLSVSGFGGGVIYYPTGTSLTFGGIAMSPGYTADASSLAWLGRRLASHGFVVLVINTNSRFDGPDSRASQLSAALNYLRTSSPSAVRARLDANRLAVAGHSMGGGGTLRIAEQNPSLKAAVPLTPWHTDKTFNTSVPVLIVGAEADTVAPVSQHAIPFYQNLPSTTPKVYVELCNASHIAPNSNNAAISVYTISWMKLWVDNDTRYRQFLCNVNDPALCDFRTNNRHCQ [LCC-ICCG]

1. 0.0931
2. 0.0148
3. 0.1

###

Test: terephthalic acid (TPA) released, HPLC; higher = more TPA released; extreme values may be limits of the assay
Details: PET substrate: cryPow; 60 °C; pH 9.5; 24 h
Measured Endpoint: terephthalic acid
Write the figure, then the unit, nothing else.

Reported terephthalic acid, sequence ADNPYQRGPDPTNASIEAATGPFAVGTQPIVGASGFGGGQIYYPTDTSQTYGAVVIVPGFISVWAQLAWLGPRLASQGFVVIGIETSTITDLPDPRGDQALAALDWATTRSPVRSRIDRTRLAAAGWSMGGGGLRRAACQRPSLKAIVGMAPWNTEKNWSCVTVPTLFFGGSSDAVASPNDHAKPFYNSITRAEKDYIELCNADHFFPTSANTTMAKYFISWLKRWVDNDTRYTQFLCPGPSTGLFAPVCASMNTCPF [CaPETaseM9] : ____
0.336 mM

###

Assay: PET hydrolysis product formed (TPA+MHET+BHET, UV-Vis) per mg enzyme (mmol/mg enzyme); higher = more PET depolymerisation activity; extreme values may be limits of the assay
Conditions: PET substrate: cryPow; 60 °C; pH 8.5; 24 h
Please enter class 1 where PET hydrolysis product formed is greater than or equal to 0.08, and class 0 where it is lower.

Some solved cases for reference:
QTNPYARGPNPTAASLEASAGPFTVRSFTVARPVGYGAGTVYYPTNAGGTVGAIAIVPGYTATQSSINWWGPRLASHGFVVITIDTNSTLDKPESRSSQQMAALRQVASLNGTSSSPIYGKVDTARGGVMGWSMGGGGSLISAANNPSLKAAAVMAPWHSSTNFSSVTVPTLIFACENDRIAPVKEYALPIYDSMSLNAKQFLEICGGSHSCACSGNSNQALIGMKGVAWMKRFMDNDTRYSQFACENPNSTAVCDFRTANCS [HotPETase]: class 1
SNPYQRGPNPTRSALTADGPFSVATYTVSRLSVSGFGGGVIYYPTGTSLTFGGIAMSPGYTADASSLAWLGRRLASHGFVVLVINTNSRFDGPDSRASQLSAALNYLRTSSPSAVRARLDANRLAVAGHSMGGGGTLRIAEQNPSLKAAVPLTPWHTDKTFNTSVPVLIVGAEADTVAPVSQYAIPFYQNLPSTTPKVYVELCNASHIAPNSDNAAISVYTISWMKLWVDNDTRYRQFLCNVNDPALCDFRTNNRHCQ [LCC-A2]: class 1
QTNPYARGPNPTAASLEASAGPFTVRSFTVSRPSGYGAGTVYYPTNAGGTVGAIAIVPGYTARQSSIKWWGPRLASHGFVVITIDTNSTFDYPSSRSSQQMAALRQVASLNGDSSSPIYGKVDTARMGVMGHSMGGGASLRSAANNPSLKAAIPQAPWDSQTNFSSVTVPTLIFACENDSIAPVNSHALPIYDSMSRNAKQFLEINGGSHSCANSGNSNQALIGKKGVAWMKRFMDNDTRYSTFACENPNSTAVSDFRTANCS [DuraPETase]: class 0

Tell me whether PET hydrolysis product formed is at least 0.08 here: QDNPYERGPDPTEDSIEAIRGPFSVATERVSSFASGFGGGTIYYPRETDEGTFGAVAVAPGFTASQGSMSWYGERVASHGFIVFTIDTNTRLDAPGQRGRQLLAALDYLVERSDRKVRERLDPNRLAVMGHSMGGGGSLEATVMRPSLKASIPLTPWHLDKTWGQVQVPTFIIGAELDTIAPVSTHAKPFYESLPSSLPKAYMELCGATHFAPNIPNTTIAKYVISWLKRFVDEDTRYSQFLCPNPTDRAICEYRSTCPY [Cut190*SS]
class 0

Tell me whether PET hydrolysis product formed is at least 0.08 here: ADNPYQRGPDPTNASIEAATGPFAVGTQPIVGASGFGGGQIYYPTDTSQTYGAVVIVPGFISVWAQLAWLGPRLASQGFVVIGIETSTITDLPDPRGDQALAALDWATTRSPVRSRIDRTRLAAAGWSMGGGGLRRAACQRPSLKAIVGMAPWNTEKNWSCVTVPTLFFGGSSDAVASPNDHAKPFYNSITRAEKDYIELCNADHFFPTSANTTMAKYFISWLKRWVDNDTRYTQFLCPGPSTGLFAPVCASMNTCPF [CaPETaseM9]
class 0

###

Assay: BHET released, HPLC; higher = more BHET released; extreme values may be limits of the assay
Conditions: PET substrate: aFilm; 60 °C; pH 4.5; 24 h
Measured Endpoint: BHET released (mM)
Give bare numbers, in mM.

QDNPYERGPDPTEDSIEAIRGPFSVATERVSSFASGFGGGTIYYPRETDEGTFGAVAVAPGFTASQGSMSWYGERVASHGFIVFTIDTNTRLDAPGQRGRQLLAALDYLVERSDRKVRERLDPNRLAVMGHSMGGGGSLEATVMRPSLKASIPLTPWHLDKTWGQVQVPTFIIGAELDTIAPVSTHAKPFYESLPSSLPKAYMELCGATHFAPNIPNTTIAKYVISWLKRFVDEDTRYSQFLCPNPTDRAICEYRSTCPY [Cut190*SS]: 0
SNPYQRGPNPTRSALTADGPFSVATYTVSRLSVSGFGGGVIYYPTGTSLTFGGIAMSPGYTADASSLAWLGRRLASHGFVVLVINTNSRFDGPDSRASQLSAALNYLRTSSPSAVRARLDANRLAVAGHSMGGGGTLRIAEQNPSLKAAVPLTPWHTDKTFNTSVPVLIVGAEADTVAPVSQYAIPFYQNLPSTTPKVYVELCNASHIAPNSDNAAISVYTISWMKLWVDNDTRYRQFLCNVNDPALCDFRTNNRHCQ [LCC-A2]: 0

Here's the next entry for you.
Reported BHET released, sequence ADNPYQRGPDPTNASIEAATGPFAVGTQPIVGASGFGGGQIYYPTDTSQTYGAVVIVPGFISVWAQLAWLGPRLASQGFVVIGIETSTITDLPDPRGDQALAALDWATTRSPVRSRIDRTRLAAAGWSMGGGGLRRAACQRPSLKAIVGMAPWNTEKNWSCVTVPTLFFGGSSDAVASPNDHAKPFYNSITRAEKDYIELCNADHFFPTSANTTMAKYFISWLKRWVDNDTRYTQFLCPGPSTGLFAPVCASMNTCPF [CaPETaseM9] : ____
0

Cited source for all entries: the supplement of paper PMC11196671
